Test system: SN12C renal
test.details: NCI tumour cell line growth inhibition, 48 h
Assign class by TGI: not lower than 30 µM means MET; lower than 30 µM means NOT MET.

| compound | category.label |
| --- | --- |
| O=c1oc2cc(OC/C(=N/O)c3ccc(F)cc3)ccc2c2ccccc12 | MET |
| CCN(CC)c1ccc(/C=C2\CCc3ccc([N+](=O)[O-])cc3C2=O)cc1 | MET |
| CN(C)CCOc1ccc(-c2c(Oc3ccccc3)c(=O)oc3ccccc23)cc1 | NOT MET |
| C=CC(C)C1(CCCOCc2ccccc2)C(=S)N2CCC3(CC24CCCC14)OCCO3 (stereo not given) | MET |
| CCCN(CCC)C(=O)c1nc(N)nc(-c2ccc(OC)cc2)c1-c1ccc(OC)cc1 | MET |
| COc1ccc(/C=C2\SC(=Nc3ccccc3)NC2=O)cc1 | MET |
| COC1=C(C)C(=O)C2=C(C1=O)C1C3CC4=C(C(=O)C(OC)=C(C)C4=O)C(CNC(=O)C(C)O)N3C(C#N)C(C2)N1C (stereo not given) | NOT MET |
| COC1=CC(=O)C=C(OC)C1=O | MET |
| CN(CCCNC(=O)c1nn(C)c2c1Cc1ccccc1-2)CCCNC(=O)c1nn(C)c2c1Cc1ccccc1-2 | MET |

* * *

Recorded TGI values for a group of molecules are listed next.
Tested on: MCF7 breast
test.details: NCI tumour cell line growth inhibition, 48 h
quantity.name: TGI

| molecule | result |
| --- | --- |
| O=c1oc2cc(OC/C(=N/O)c3ccc(F)cc3)ccc2c2ccccc12 | 38.4 µM |
| CC1SC2(CCCCC2)N(NC(=O)CSc2nc3ccc(Cl)cc3c(=O)n2-c2ccccc2)C1=O (stereo not given) | 32.2 µM |
| COC(=O)C1=C(C(=O)OC)C(N(C)C)C(C(=O)OC)=C(C(=O)OC)S1 | > 100 µM |
| COc1cc(Cc2cnc(N)nc2N)cc(OC)c1OCCCNc1ccc([N+](=O)[O-])cc1 | 26.5 µM |
| CC1(C)C2CCC1C(=O)[C@@]1(C=CC(=O)CC1)C2 (stereo not given in full) | > 100 µM |

* * *

Tested on: NCI-H522 lung
test.details: NCI tumour cell line growth inhibition, 48 h
Recorded log10 of TGI values for a group of compounds are listed next.
quantity.name: log10 of TGI (log10 of the value in µM)

| compound | quantity.name | quantitative.readout |
| --- | --- | --- |
| CC1CC(C)C2OC2(C)C[C@H](C)C(=O)NC(C)C(=O)N(C)[C@H](Cc2c(Br)[nH]c3ccccc23)C(=O)N[C@@H](c2ccc(O)cc2)CC(=O)O1 (stereo not given in full) | log10 of TGI | -0.07 |
| S=c1nc(N/N=C/c2cccs2)c2cn[nH]c2[nH]1 | log10 of TGI | 1.89 |
| Cc1cccc(C)c1N1C(=O)C(=O)C(c2nc3ccccc3s2)/C(=N/NC(=O)c2ccccc2O)C1=O (stereo not given) | log10 of TGI | 1.60 |
| COc1ccc(NC(=O)c2sc3nc(C)c(C(=O)/C=C/c4cccc(OC)c4)cc3c2N)cc1 | log10 of TGI | 0.73 |
| CC(C)C(=O)/C=C/S/C=C/C(=O)C(C)C | log10 of TGI | 0.56 |
| CCCCSC1=N/C(=C\c2ccc(N(C)C)cc2)C(=O)N1 | log10 of TGI | 1.87 |
| COC(=O)Nc1nc2ccc(C(=O)c3ccccc3)cc2[nH]1 | log10 of TGI | 0.37 |
| CC(=O)C(C(C)=O)[C@@H]1OC(C)(C)O[C@@H]1[C@H]1COC(C)(C)O1 | log10 of TGI | 1.91 |
| CC(C)C(=O)c1c(C(F)(F)F)n([O-])c2cc(F)c(F)cc2[n+]1=O | log10 of TGI | 0.79 |
| COc1ccc(/C(C#N)=C/c2cc(OC)c(OC)c(OC)c2)cc1 | log10 of TGI | 1.75 |
| COC1=C(Cl)C(=O)c2c(O)ccc(O)c2C1=O | log10 of TGI | -0.25 |
| COC(=O)C1CC(OC(C)=O)C=C2C(=O)CCC21 (stereo not given) | log10 of TGI | 0.57 |
| COc1cc2cc(C(=O)N3CC(CCl)c4ccc(N(C)C)cc43)[nH]c2c(OC)c1OC (stereo not given) | log10 of TGI | -1.46 |
| COc1ccc(/C=C2\SC(=Nc3ccccc3)NC2=O)cc1 | log10 of TGI | 1.40 |
| COc1ccc2c(c1)NC1(CCN(CCCC(=O)c3ccc(F)cc3)CC1)N=N2 | log10 of TGI | 1.53 |
| COC(=O)CNC(=O)CCC(C)[C@H]1CCC2C3C(C[C@H](OC(C)=O)[C@@]21C)[C@@]1(C)CCC2(C[C@H]1C[C@H]3OC(C)=O)OOC1(CC[C@]3(C)C4C[C@H](OC(C)=O)[C@@]5(C)C(CC[C@@H]5C(C)CCC(=O)NCC(=O)OC)C4[C@H](OC(C)=O)C[C@@H]3C1)OO2 (stereo not given in full) | log10 of TGI | 0.50 |
| C=C1C(=O)O[C@H]2[C@H]1CC/C(COC(=O)OC/C1=C/CC[C@@]3(C)O[C@H]3[C@H]3OC(=O)[C@@H](CN(C)C)[C@@H]3CC1)=C\CC[C@@]1(C)O[C@@H]21 | log10 of TGI | -0.29 |
| Cc1nc2c(cc1OCc1ccccc1)C(=O)C1=C(C2=O)C2OC(=O)CC2OC1(C)C (stereo not given) | log10 of TGI | -0.41 |

* * *

Recorded TGI values for a group of compounds are listed next.
System: SF-539 CNS
test.details: NCI tumour cell line growth inhibition, 48 h
quantity.name: TGI (µM)

| compound | value.modifier | quantitative.readout |
| --- | --- | --- |
| NCCNC(=O)c1cccc2cc3ccccc3nc12 | = | 16.9 |
| CCC(CC)(CO)CNc1cc(Cl)nc(N)n1 | > | 100 |
| NC(N)=NC(N)=NCCCc1ccco1 | = | 268 |
| CC1CC(C)C2OC2(C)C[C@H](C)C(=O)NC(C)C(=O)N(C)[C@H](Cc2c(Br)[nH]c3ccccc23)C(=O)N[C@@H](c2ccc(O)cc2)CC(=O)O1 (stereo partly specified) | = | 0.383 |
| CCCCSC1=N/C(=C\c2ccc(N(C)C)cc2)C(=O)N1 | = | 63.9 |
| CCOC1NC(=O)Oc2cc3ccccc3cc21 (stereo unspecified) | > | 100 |

* * *

System: M14 melanoma
test.details: NCI tumour cell line growth inhibition, 48 h
quantity.name: TGI

| compound | result |
| --- | --- |
| CCOC(=O)C12C(C(=O)OC)=C(C)N(NC(=O)Nc3ccccc3)C1(N)N(NC(=O)Nc1ccccc1)C(C)=C2C(=O)OC (stereo unspecified) | 45.6 µM |
| C/C=C(\C)C(=O)O[C@@H]1CC(C)(C)CC2C3=CCC4[C@]56CC[C@](O)(OC5)C(C)(C)C6CC[C@@]4(C)C3(C)CC[C@]21C(=O)O (stereo partly specified) | > 100 µM |
| C#C[C@@]1(O)CCCC2=CC3(CC[C@]21C)SCCS3 | > 100 µM |
| CCOC(=O)C(=CNC(=S)N=Nc1c(O)[nH]c2ccccc12)C(=O)OCC | > 100 µM |
| CC(=O)C(C(C)=O)[C@@H]1OC(C)(C)O[C@@H]1[C@H]1COC(C)(C)O1 | > 100 µM |
| O=C(Nc1ccccc1Cl)c1ccc([N+](=O)[O-])cc1 | > 100 µM |
| O=c1[nH]c2nccn2c2c1SCCN2 | > 100 µM |
| CCCN(CCC)C(=O)c1nc(N)nc(-c2ccc(OC)cc2)c1-c1ccc(OC)cc1 | > 100 µM |
| Cc1c(Cl)cccc1N=NC(=O)NNc1cccc(Cl)c1C | 35.7 µM |
| OC12c3ccccc3C1CCCCCCCCCC21OCCO1 (stereo unspecified) | > 100 µM |
| O=[N+]([O-])c1cc(F)ccc1S(=O)(=O)c1ccccc1 | > 10 µM |
| CCOC1NC(=O)Oc2cc3ccccc3cc21 (stereo unspecified) | > 100 µM |
| COc1ccc2c(c1)NC1(CCN(CCCC(=O)c3ccc(F)cc3)CC1)N=N2 | 26.6 µM |
| O=C(O)/C(=C\c1ccc(O)cc1)c1cccc2ccccc12 | > 100 µM |
| O=C(OC1CN2CCC1CC2)N(c1ccccc1)c1ccccc1 (stereo unspecified) | > 100 µM |
| COc1c(Br)cc2ccccc2c1-c1c(OC)c(Br)cc2ccccc12 | > 100 µM |

* * *

Test system: OVCAR-8 ovarian
test.details: NCI tumour cell line growth inhibition, 48 h
Recorded TGI values for a group of compounds are listed next.

| compound | TGI |
| --- | --- |
| CC(=O)/C=C/C1=C(c2csc3ccccc23)c2ccccc2CC1 | > 100 µM |
| COc1ccc(-c2ncn(C[Si](C)(C)C)c2-c2ccc(OC)cc2)cc1 | 31.4 µM |
| CC(=O)O[C@H]1C[C@@H](OC(C)=O)[C@@](C)(O)[C@@H]2[C@@H](OC(C)=O)[C@@]3(O)[C@H](/C=C(/CO)[C@H]4O[C@H]4[C@@H](OC(C)=O)[C@@]12C)OC(=O)[C@@H]3C | > 25 µM |
| C=CC(C)C1(CCCOCc2ccccc2)C(=S)N2CCC3(CC24CCCC14)OCCO3 (centres undefined) | > 100 µM |
